- experimental_system: T1, His/Avi-CynoIL18BP (recombinant cynomolgus IL-18BP with His and Avi tags) (cynomolgus monkey)
- T1 construct: also called cynomolgus IL-18BP-Avi-His
- T1 chain: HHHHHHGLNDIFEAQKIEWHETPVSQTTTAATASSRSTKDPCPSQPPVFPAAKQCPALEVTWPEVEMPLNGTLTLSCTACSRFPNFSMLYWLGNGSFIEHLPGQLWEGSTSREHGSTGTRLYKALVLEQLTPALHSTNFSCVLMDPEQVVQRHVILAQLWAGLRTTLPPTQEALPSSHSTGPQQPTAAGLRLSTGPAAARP
- assay_overview: SPR Carterra LSA, IgG immobilized
reported_property: Kd (nM)
Quick note: give the figure in nM, leave out the unit.

A selection of reference data follows.
binder="anti-IL18BP antibody BP-10 (antibody, human IgG1, V domains shown) VH: QVQLQQPGAERVEPGASVRLSCKTSGYTFTNYWMHWVKQRPGQGLEWIGMIHPESGSTNNNEKFKSKATLTVDKSSSTAYMQLSSLTSEDSAVYYCARWDRGYFDYWGQGTTLTVSS VL: DIVMTQSHKFMSTSVGDRVSITCKASQDVRSTVGWYQQRPGQSPKLLIYWTSTRHTGVPDRFTGSGSGTDYTLTISSVQAEDLALYYCQQHYSTPYTFGGGTTLEIK" experimental_result=0.02
binder="anti-IL18BP antibody BP-03 (antibody, human IgG1, V domains shown) VH: EVQLQQSGPELVKPGASVKIPCKASGYTFTDYNMDWVKQSHGKSLEWIGNINTDNGGTVYNQKFKGKATLTVDQSSSTAYMELRSLTSEDTAVYYCARSDTTVVASRYYAMDYWGQGTSVTVSS VL: DIVLTQSPASLAMSLGKRATISCRASESVSIIGTNLIHWYQQKPGQPPKLLIYHASNLETGVPARFSGSGSRTDFTLTIDPVEEDDVAIYYCLQSRKIPPTFGGGTKLEIK" experimental_result=2.34

Now for another entry.
Enquiry: Please look at this binder and report its Kd: anti-IL18BP antibody BP-01 (antibody, human IgG1, V domains shown) VH: QVQLQQSGPEVVRPGVSVKISCKGSGYTFTDFAMYWVKQSHAKSLEWIGVISTDNGDTSYNQKFKGKATMTVDKSSSTAYMELDRLTSEDSAIYYCARSRGPFDYWGQGTALTVSS VL: DIVMTQSHKFKSTSVGDRVNITCKASQDVGTAVAWYQQKPGQSPKLLIYWASTRHIGVPDRFTGSGSGTDFTLTIRNVQSEDLADYFCQRYSSYPWTFGGGTKLEIK
Return: 12.1
